This collection of values is drawn from PubChem BioAssay (NCATS).

System: DIV17
method_summary: qHTS profiling for inhibitors of Plasmodium falciparum proliferation (AID 504749); note: nearly all actives have a fitted effect of over 60% in size
test_settings: P. falciparum in erythrocytes, SYBR Green DNA, 72 h; series mostly up to 28.7 µM
Records with an inconclusive call do not appear. The source made the active and inactive calls. Calls come from the whole dose curve; as a rule, active = well fitted inhibition curve with a large enough effect; inconclusive = small, poorly fitted or top-dose-only effect; inactive = flat fitted curve, though single readings scatter.
Return exactly one item of TRUE = active, FALSE = inactive

Query: Tell me the assay call for Cn1cnc2c1c(=O)[nH]c(=O)n2C please.
Response: FALSE

Query: Consider next the molecule CN1CCC(=C2c3ccccc3CC(=O)c3sccc32)CC1 in the same way.
Response: TRUE

Query: Consider next the molecule CN1CCN2c3ccccc3Cc3ccccc3C2C1 (centres undefined) in the same way.
Response: FALSE

Query: Consider next the molecule CC(COc1ccccc1)N(CCCl)Cc1ccccc1 (centres undefined) in the same way.
Response: TRUE

Query: Consider next the molecule CC(C)C(=O)Nc1ccc([N+](=O)[O-])c(C(F)(F)F)c1 in the same way.
Response: FALSE

Query: Consider next the molecule CC(=O)OCC(CCn1cnc2cnc(N)nc21)COC(C)=O in the same way.
Response: FALSE

Query: Consider next the molecule Cn1c(=O)c2c(ncn2C)n(C)c1=O in the same way.
Response: FALSE

Query: Consider next the molecule CN(C)CCC=C1c2ccccc2C=Cc2ccccc21 in the same way.
Response: TRUE

Query: Consider next the molecule CN(C)c1nc(N(C)C)nc(N(C)C)n1 in the same way.
Response: FALSE

====

method_summary: qHTS assay for small molecule agonists of the antioxidant response element (ARE) signaling pathway (AID 651741); for activation: % of control where 0% means no effect
test_settings: HepG2 ARE-bla reporter, beta-lactamase FRET ratio, 16 h; series mostly up to 96 µM
Source text: National Center for Advancing Translational Sciences [NCATS] NIH Chemical Genomics Center [NCGC] U.S. Environmental Protection Agency [EPA] National Institutes of Environmental Health Sciences [NIEHS] National Toxicology Program [NTP] Oxidative stress has been implicated in the pathogenesis of a variety of diseases ranging from cancer to neurodegeneration. […] The activation of the report gene under culture conditions can be detected by fluorescence intensity. […]
Records with an inconclusive call do not appear. The source made the active and inactive calls. Calls come from the whole dose curve; as a rule, active = well fitted activation curve with a large enough effect in the signal ratio; inconclusive = small, poorly fitted or top-dose-only effect, or effect the other way, or a change in a side signal; inactive = flat fitted curve, though single readings scatter; the % refers to the signal ratio.
Return exactly one item of YES = active, NO = inactive

Solved cases (5 shown):
compound	cat
Cn1c(=O)c2c(ncn2C)n(C)c1=O	NO
Cn1c(=O)c2[nH]cnc2n(C)c1=O	NO
O=C(Nc1ccc([N+](=O)[O-])cc1Cl)c1cc(Cl)ccc1O	YES
Clc1ccc(C(c2ccccc2Cl)C(Cl)Cl)cc1 (stereo not given)	YES
CCC1(c2ccccc2)C(=O)NCNC1=O	NO

Query: Tell me the assay call for Cn1cnc2c1c(=O)[nH]c(=O)n2C please.
Response: NO

Query: Consider next the compound Cc1cn([C@H]2C=C[C@@H](CO)O2)c(=O)[nH]c1=O in the same way.
Response: NO

Query: Consider next the compound CC#C[C@]1(O)CC[C@H]2[C@@H]3CCC4=CC(=O)CCC4=C3[C@@H](c3ccc(N(C)C)cc3)C[C@@]21C in the same way.
Response: YES

Query: Consider next the compound CCOC(=O)C(C)(C)Oc1ccc(Cl)cc1 in the same way.
Response: NO

Query: Consider next the compound Nc1ccn([C@H]2CC[C@@H](CO)O2)c(=O)n1 in the same way.
Response: NO

====

method_summary: Quantitative High-Throughput drug screen in 47 multiple myeloma cell lines against the NCATS MIPE library collection: KMS20_JCRB cell viability assay (AID 1918973); note: nearly all actives have a fitted effect of over 45% in size; note: potency is the fitted concentration of half-maximal effect
test_settings: CellTiter-Glo ATP, 48 h; series mostly up to 45.8 µM
Inconclusive results are not listed. The source made the active and inactive calls. The call rests on the fitted dose curve; in most records, active means well fitted cell-killing curve with a large enough effect; inconclusive means small, poorly fitted or top-dose-only effect, or effect the other way; inactive means no such curve, though single readings can be large or run the other way.
observation_type: Potency

Worked examples follow.
CC1(C)O[C@H]2CC(=O)OC[C@]23[C@H]2CC[C@@]4(C)[C@H](c5ccoc5)OC(=O)[C@H]5O[C@]54[C@]2(C)C(=O)C[C@@H]13 inactive
Clc1ccc2c(c1)C(N1CCNCC1)=Nc1ccccc1O2 20.9 µM (active)
CCOC(=O)C(C)(C)Oc1ccc(Cl)cc1 inactive
O=C1N(c2ccccc2)c2ccccc2C1(Cc1ccncc1)Cc1ccncc1 0.001 µM (active)
CN(C)C(=N)N=C(N)N inactive

Query: // returns reported Potency for input CN(C)C(=O)C(CCN1CCC(O)(c2ccc(Cl)cc2)CC1)(c1ccccc1)c1ccccc1
Response: 14.8 µM (active)

Query: Consider next the molecule COc1nc(C)nc(Cl)c1NC1=NCCN1 in the same way.
Response: 9.35 µM (active)

Query: Consider next the molecule CC[C@@]1(O)C(=O)OCc2c1cc1n(c2=O)Cc2cc3c(CN(C)C)c(O)ccc3nc2-1 in the same way.
Response: 0.235 µM (active)

Query: Consider next the molecule O=C(Nc1ccc([N+](=O)[O-])cc1Cl)c1cc(Cl)ccc1O in the same way.
Response: 0.59 µM (active)

Query: Consider next the molecule COc1cc2nc(N3CCN(C(=O)c4ccco4)CC3)nc(N)c2cc1OC in the same way.
Response: 8.33 µM (active)

====

method_summary: qHTS drug screen for cell cycle checkpoint inhibitors in PARPi-resistant BRCA-mutant ovarian cancer cell lines. (AID 1963452)
test_settings: PEO1/OlaR viability, CellTiter-Glo luminescence, 96 h; hits give low values
Returns: string. Value is criterion met if measured Z-AUC is below 0.03, and criterion not met if it is greater than or equal to it.

Solved cases (5 shown):
compound	cat
CN(C)CCC=C1c2ccccc2C=Cc2ccccc21	criterion met
Cc1cc(C(C)(C)C)c(O)c(C)c1CC1=NCCN1	criterion not met
CC#C[C@]1(O)CC[C@H]2[C@@H]3CCC4=CC(=O)CCC4=C3[C@@H](c3ccc(N(C)C)cc3)C[C@@]21C	criterion not met
CCCNCC(O)COc1ccccc1C(=O)CCc1ccccc1 (stereo unspecified)	criterion not met
Cn1c(=O)c2[nH]cnc2n(C)c1=O	criterion not met

Query: Does the reported Z-AUC of the following compound sit strictly below 0.03? O=C(Nc1ccc([N+](=O)[O-])cc1Cl)c1cc(Cl)ccc1O
Response: criterion met

Query: Consider next the compound CN1C(C(=O)Nc2ccccn2)=C(O)c2ccccc2S1(=O)=O in the same way.
Response: criterion not met

Query: Consider next the compound COc1cc2c(c(OC)c1OC)-c1ccc(OC)c(=O)cc1[C@@H](NC(C)=O)CC2 in the same way.
Response: criterion met

Query: Consider next the compound CC(C(=O)O)c1cccc(C(=O)c2ccccc2)c1 (stereo unspecified) in the same way.
Response: criterion met

Query: Consider next the compound NS(=O)(=O)c1cc2c(cc1Cl)NCNS2(=O)=O in the same way.
Response: criterion not met

Query: Consider next the compound CCN1CCCC1CNC(=O)c1cc(S(=O)(=O)CC)c(N)cc1OC (stereo unspecified) in the same way.
Response: criterion not met

====

method_summary: Cell Viability - SH-SY5Y (AID 544);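 note: cells exposed to compound for 40 hours; 0% = DMSO alone and -100% = 100 µM tamoxifen; nearly all actives have a fitted effect of over 55% in size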
test_settings: SH-SY5Y neuroblastoma cell viability
Results filed as inconclusive are left out. The source made the active and inactive calls. The call rests on the fitted dose curve; in most records, active means well fitted cell-killing curve with a large enough effect; inconclusive means small, poorly fitted or top-dose-only effect; inactive means flat fitted curve, though single readings scatter.
Return exactly one item of 1 (yes) for active, 0 (no) for inactive

compound	cat
COc1ccc(CCN(C)CCCC(C#N)(c2ccc(OC)c(OC)c2)C(C)C)cc1OC (stereo unspecified)	0 (no)

Query: Tell me the assay call for NCCS(=O)(=O)O please.
Response: 0 (no)

Query: Consider next the compound CC(C)C(=O)Nc1ccc([N+](=O)[O-])c(C(F)(F)F)c1 in the same way.
Response: 0 (no)

====

method_summary: qHTS for differential inhibitors of proliferation of Plasmodium falciparum line GB4 (AID 1816);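 note: parasite growth measured after 72 h incubation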; note: potency is the fitted concentration of half-maximal effect
test_settings: Plasmodium falciparum GB4 proliferation inhibition; series mostly up to 28.7 µM
Records with an inconclusive call do not appear. Activity calls are given as the source filed them. The call rests on the fitted dose curve; in most records, active means well fitted curve in the direction sought with a large enough effect; inconclusive means small, poorly fitted or top-dose-only effect, or another doubt; inactive means no such curve, though single readings can be large or run the other way.
observation_type: Potency

Worked examples follow.
compound	observation_type	result
CCc1cccc2c3c([nH]c12)C(CC)(CC(=O)O)OCC3 (configuration not stated)	Potency	inactive
N[C@@H](Cc1c[nH]c2ccc(O)cc12)C(=O)O	Potency	inactive
COc1cc2nc(N3CCN(C(=O)c4ccco4)CC3)nc(N)c2cc1OC	Potency	12.6 µM (active)
COc1nc(C)nc(Cl)c1NC1=NCCN1	Potency	inactive
Cc1ccccc1N1C(=O)c2cc(S(N)(=O)=O)c(Cl)cc2NC1C (configuration not stated)	Potency	inactive
O=C1N(c2ccccc2)c2ccccc2C1(Cc1ccncc1)Cc1ccncc1	Potency	12.6 µM (active)

Query: // returns reported Potency for input CCC1(C)CC(=O)NC1=O (configuration not stated)
Response: inactive

Query: Consider next the compound Nc1c2c(nc3ccccc13)CCCC2 in the same way.
Response: 10 µM (active)

====

tested_on: Tyrosine-protein phosphatase non-receptor type substrate 1 (Homo sapiens) + Leukocyte surface antigen CD47 (Homo sapiens) (UniProt P78324+Q08722)
Sequence (P78324 whole entry, looked up): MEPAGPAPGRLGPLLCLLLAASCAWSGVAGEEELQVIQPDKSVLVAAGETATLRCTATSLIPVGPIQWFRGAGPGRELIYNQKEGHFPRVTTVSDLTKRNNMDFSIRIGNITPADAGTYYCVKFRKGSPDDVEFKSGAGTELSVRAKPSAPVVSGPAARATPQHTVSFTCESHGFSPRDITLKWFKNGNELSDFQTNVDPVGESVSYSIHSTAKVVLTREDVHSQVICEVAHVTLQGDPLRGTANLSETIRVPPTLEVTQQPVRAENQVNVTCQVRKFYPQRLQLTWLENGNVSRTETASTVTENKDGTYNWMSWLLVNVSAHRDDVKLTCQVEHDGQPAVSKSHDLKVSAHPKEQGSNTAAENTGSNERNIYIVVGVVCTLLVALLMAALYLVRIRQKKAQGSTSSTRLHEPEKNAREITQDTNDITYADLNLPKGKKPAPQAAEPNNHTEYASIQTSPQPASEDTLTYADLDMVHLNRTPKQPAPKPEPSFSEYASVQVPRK
Sequence (Q08722 whole entry, looked up): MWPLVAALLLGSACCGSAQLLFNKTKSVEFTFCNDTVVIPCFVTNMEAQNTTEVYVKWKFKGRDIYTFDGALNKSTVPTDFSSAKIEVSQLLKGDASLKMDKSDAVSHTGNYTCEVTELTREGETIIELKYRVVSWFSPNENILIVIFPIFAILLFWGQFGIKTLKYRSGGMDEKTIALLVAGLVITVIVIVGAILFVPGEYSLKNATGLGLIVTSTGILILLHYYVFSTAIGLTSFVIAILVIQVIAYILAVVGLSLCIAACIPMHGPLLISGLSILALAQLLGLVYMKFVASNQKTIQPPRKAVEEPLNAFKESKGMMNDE
method_summary: CD47-SIRPalpha protein protein interaction - LANCE assay qHTS validation (AID 1347057); note: 0% is about no effect
test_settings: Recombinant CD47-His / biotin-SIRPalpha, TR-FRET ratio; series mostly up to 38.3 µM
Records with an inconclusive call do not appear. Activity calls are given as the source filed them. Calls come from the whole dose curve; as a rule, active = well fitted curve in the direction sought with a large enough effect in the signal ratio, with a control signal flat (not every such curve was filed as active); inconclusive = small, poorly fitted or top-dose-only effect, or effect the other way, or a change in a side signal; inactive = no such curve, though single readings can be large or run the other way; the % refers to the signal ratio.

molecule	outcome
CCc1cccc2c3c([nH]c12)C(CC)(CC(=O)O)OCC3 (stereo not drawn)	inactive
O=C(C1CCCCC1)N1CC(=O)N2CCc3ccccc3C2C1 (stereo not drawn)	inactive
COc1ccc2[nH]cc(CCNC(C)=O)c2c1	inactive
